# tested system: UniProt:Q9HBH9
# assay protocol: Mnk2a in vitro kinase assay (indirect fluorescence polarization)
# experimental context: GST-Mnk2a pre-activated with ERK2, 20 μM ATP, 30 μM substrate peptide; read-out: MNK2 IC50
Property: IC50; scope: individual compounds
Report as: number unit

q: Any idea what its IC50 is? The compound is Cc1c(C(=O)NCC(c2cccnc2)N(C)C)sc2ncnc(Nc3ccc(F)cc3OC3CCCNC3)c12 (stereo not shown) [Example 62]
a: 0.11 µM

q: // returns reported IC50 for input CCN(CC)CCCNC(=O)c1sc2ncnc(Nc3ccc(F)cc3OC3CCOCC3)c2c1C [Example 223]
a: 2.29 µM

q: Consider the compound shown here: Cc1c(C(=O)NCCCC2CCOC2)sc2ncnc(Nc3ccc(F)cc3OC3CCCNC3)c12 (stereo not shown) [Example 39] What is its recorded IC50?
a: 0.058 µM

q: Entry under review: Cc1c(C(=O)NCCO)sc2ncnc(Nc3ccc(F)cc3OC3CCOCC3)c12 [Example 211] . Reported IC50?
a: 0.029 µM

====

# tested system: human Mnk2a (Homo sapiens)
# assay protocol: Mnk2a in vitro kinase assay (indirect fluorescence polarization)
# experimental context: GST-Mnk2a pre-activated with ERK2, 20 μM ATP, 30 μM substrate peptide; read-out: MNK2 IC50
# Procedure: Inhibitory potency of compounds against Mnk1, Mnk2a and other kinases was assessed with assays based on a format known to those skilled in the art as the indirect (competitive) fluorescence polarization. The assay detection system comprises a small fluorophore-labeled phospho-peptide (termed ligand) bound to a phospho-specific antibody. The product generated by the kinase reaction competes with the ligand for antibody binding. […]
pIC50: −log10 of the molar value. Where a name gives a salt, the structure may show the parent alone.
Outcome label depends on pIC50 relative to 7: at/above gives class 1, below gives class 0.

Solved entries:
| compound | category |
| --- | --- |
| Cc1c(C(=O)N[C@@H]2CC[C@H](N)C2)sc2ncnc(Nc3ccc(F)cc3OC3CCOCC3)c12 | class 1 |
| Cc1c(C(=O)NCC#N)sc2ncnc(Nc3cccnc3O[C@@H]3CCCOC3)c12 | class 1 |
| Cc1c(C(=O)N(C)CC2CCCCC2)sc2ncnc(Nc3ccc(F)cc3OC3CCCNC3)c12 (centres unmarked) | class 0 |
| Cc1c(C(=O)NC2CCCNCC2)sc2ncnc(Nc3ccc(F)cc3OC3CCOC3)c12 (stereo in doubt) [Compound 277, trifluoroacetate] | class 1 |
| Cc1c(C(=O)NCc2cocn2)sc2ncnc(Nc3ccc(F)cc3OC3CCOCC3)c12 | class 1 |

q: Quick check, pIC50 >= 7? "CC(=O)N1CC[C@H](Oc2cc(F)ccc2Nc2ncnc3sc(C(N)=O)c(C)c23)C1"
a: class 0

====

// reported IC50 per item
# tested system: human Mnk2a (Homo sapiens, UniProt Q9HBH9)
# Sequence (Q9HBH9 whole entry): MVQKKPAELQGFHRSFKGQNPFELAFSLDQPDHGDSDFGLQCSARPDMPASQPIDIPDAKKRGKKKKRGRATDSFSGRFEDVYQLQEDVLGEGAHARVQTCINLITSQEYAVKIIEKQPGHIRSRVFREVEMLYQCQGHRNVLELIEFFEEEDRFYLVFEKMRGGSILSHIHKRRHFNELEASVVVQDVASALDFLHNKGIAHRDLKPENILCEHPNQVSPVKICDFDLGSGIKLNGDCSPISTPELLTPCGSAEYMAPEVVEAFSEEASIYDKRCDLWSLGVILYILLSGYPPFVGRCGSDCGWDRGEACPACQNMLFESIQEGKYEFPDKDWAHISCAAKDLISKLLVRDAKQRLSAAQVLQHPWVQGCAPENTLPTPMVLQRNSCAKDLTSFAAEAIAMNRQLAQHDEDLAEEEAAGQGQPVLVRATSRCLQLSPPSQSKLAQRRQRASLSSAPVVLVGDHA
# assay protocol: Mnk2a in vitro kinase assay (indirect fluorescence polarization)
# experimental context: GST-Mnk2a pre-activated with ERK2, 20 μM ATP, 30 μM substrate peptide; read-out: MNK2 IC50
# Procedure: Inhibitory potency of compounds against Mnk1, Mnk2a and other kinases was assessed with assays based on a format known to those skilled in the art as the indirect (competitive) fluorescence polarization. The assay detection system comprises a small fluorophore-labeled phospho-peptide (termed ligand) bound to a phospho-specific antibody. The product generated by the kinase reaction competes with the ligand for antibody binding. […]
Counter-ions that a name gives are not always drawn.
Write your answer as a measured quantity: the number, then the unit.

| compound | IC50 |
| --- | --- |
| Cc1c(C(=O)NCC(=O)c2ccccc2)sc2ncnc(Nc3ccc(F)cc3OC3CCCNC3)c12 (stereo not drawn) | 0.041 µM |

q: Endpoint output: IC50 of "CNC(=O)CCNC(=O)c1sc2ncnc(Nc3ccc(F)cc3OC3CCOCC3)c2c1C" . Value?
a: 0.037 µM

q: Query (compound): "Cc1c(C(=O)NCCCO)sc2ncnc(Nc3ccc(F)cc3OC3CCOCC3)c12" ; field requested: IC50
a: 0.04 µM

q: For the compound "CSCCCNC(=O)c1sc2ncnc(Nc3ccc(F)cc3OC3CCOCC3)c2c1C" , what IC50 is on record?
a: 0.036 µM

q: Any idea what IC50 was measured for "Cc1c(C(=O)NCCCN(C)C)sc2ncnc(Nc3ccc(F)cc3O[C@H]3CCCOC3)c12" ?
a: 0.012 µM

q: I have this compound here, Cc1c(C(=O)NC2CCOC2)sc2ncnc(Nc3ccc(F)cc3OC3CCOCC3)c12 (stereo not drawn) , and I need its recorded IC50.
a: 0.07 µM

q: Reported IC50, compound "Cc1c(C(=O)NCCCn2ccnc2)sc2ncnc(Nc3ccc(F)cc3OC3CCOCC3)c12" : ____
a: 0.042 µM

q: If you can, please state the reported IC50 value of "Cc1c(C(=O)NCc2cn(C)cn2)sc2ncnc(Nc3ccc(F)cc3OC3CCOCC3)c12" .
a: 0.022 µM

q: Fill in the blank: the reported IC50 of CNC(=O)c1sc2ncnc(Nc3ccc(F)cc3OC3CCN(S(C)(=O)=O)C3)c2c1C (stereo not drawn) is ____.
a: 0.014 µM

q: Which IC50 is reported for this compound? "Cc1c(C(=O)NC2CCN(C)CC2)sc2ncnc(Nc3cccnc3O[C@@H]3CCCOC3)c12"
a: 0.115 µM

q: IC50 lookup needed for "CNC(=O)CNC(=O)c1sc2ncnc(Nc3ccc(F)cc3OC3CCOCC3)c2c1C" , thanks.
a: 0.05 µM

q: Query (compound): "Cc1c(C(=O)NC(C)C)sc2ncnc(Nc3ccc(F)cc3OC3CCOCC3)c12" ; field requested: IC50
a: 0.043 µM

q: Could you share which IC50 value was measured for Cc1c(C(=O)NCC2CCCO2)sc2ncnc(Nc3ccc(F)cc3OC3CCCNC3)c12 (stereo not drawn) ?
a: 0.081 µM

q: For the compound shown here, "Cc1c(C(=O)NCC(=O)O)sc2ncnc(Nc3ccc(F)cc3OC3CCOCC3)c12" , give the reported IC50.
a: 0.037 µM

q: Looking for the measured IC50 of Cc1c(C(=O)NC2CCCNCC2)sc2ncnc(Nc3ccc(F)cc3O[C@H]3CCOC3)c12 (stereo partly drawn) [Example 273, trifluoroacetate] , can you help?
a: 0.049 µM

q: Please look up its IC50: "COCCN1CCC[C@H](Oc2cc(F)ccc2Nc2ncnc3sc(C(N)=O)c(C)c23)C1"
a: 0.49 µM

q: For the compound "Cc1c(C(=O)NCC(C)(C)O)sc2ncnc(Nc3ccc(F)cc3OC3CCOCC3)c12" , what IC50 is on record?
a: 0.066 µM

q: IC50 for "Cc1c(C(N)=O)sc2ncnc(Nc3ccc(F)cc3O[C@@H]3CCCN(C)C3)c12" ?
a: 0.043 µM
